Molecular target: T1, canine NGF tagged at the C-terminus with the Flag tag (canine, UniProt A0A8I3PYI3 122-241)
T1 construct: mature; Expressed with baculovirus technology; also called feline NGF (processed form identical)
T1 sequence (A0A8I3PYI3 entry or part of it): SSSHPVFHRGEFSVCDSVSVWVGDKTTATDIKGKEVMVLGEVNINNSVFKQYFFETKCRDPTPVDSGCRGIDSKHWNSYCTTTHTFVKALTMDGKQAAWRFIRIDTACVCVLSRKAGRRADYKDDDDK
Test: SPR off-rate screen, Fab-SASA on BSA chip
Below, each of the binders is paired with its reported kon value.
Quantity Kind: kon (M⁻¹ s⁻¹)

>>> observed_measurement("felinized clone 101 Fab-SASA variant S56N (VL) (Fab, V domains shown, not shown: small tags and cut ends) VH: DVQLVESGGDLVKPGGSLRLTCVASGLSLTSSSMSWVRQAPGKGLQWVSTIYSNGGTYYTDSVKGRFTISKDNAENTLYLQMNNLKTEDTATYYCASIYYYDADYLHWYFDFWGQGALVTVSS VL: EIQMTQSPTSLSASVGDRVTITCRASEGISNNLSWYQQTPGKAPKLLIYATSNLHNGVPSRFSGSGSGTDFTLTISSLQPEDFATYYCQQGYKWPLTFGGGTKLEITR")
341000
>>> observed_measurement("felinized clone 101 Fab-SASA variant K64E (VH) (Fab, V domains shown, not shown: small tags and cut ends) VH: DVQLVESGGDLVKPGGSLRLTCVASGLSLTSSSMSWVRQAPGKGLQWVSTIYSNGGTYYTDSVEGRFTISKDNAENTLYLQMNNLKTEDTATYYCASIYYYDADYLHWYFDFWGQGALVTVSS VL: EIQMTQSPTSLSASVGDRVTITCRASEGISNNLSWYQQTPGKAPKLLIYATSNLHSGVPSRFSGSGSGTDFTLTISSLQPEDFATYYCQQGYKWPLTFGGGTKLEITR")
196000
>>> observed_measurement("felinized clone 101 Fab-SASA variant T60E (VH) (Fab, V domains shown, not shown: small tags and cut ends) VH: DVQLVESGGDLVKPGGSLRLTCVASGLSLTSSSMSWVRQAPGKGLQWVSTIYSNGGTYYEDSVKGRFTISKDNAENTLYLQMNNLKTEDTATYYCASIYYYDADYLHWYFDFWGQGALVTVSS VL: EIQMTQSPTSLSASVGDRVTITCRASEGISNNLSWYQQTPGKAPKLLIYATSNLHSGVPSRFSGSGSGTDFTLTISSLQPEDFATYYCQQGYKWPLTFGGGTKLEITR")
287000
>>> observed_measurement("felinized clone 101 Fab-SASA variant Y58D (VH) (Fab, V domains shown, not shown: small tags and cut ends) VH: DVQLVESGGDLVKPGGSLRLTCVASGLSLTSSSMSWVRQAPGKGLQWVSTIYSNGGTDYTDSVKGRFTISKDNAENTLYLQMNNLKTEDTATYYCASIYYYDADYLHWYFDFWGQGALVTVSS VL: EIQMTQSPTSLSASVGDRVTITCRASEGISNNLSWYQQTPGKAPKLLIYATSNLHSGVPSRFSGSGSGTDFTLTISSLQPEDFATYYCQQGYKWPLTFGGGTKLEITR")
381000
>>> observed_measurement("felinized clone 101 Fab-SASA variant N53L (VL) (Fab, V domains shown, not shown: small tags and cut ends) VH: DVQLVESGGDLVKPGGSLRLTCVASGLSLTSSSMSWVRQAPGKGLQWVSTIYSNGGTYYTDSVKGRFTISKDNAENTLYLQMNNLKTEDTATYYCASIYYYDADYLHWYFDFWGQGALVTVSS VL: EIQMTQSPTSLSASVGDRVTITCRASEGISNNLSWYQQTPGKAPKLLIYATSLLHSGVPSRFSGSGSGTDFTLTISSLQPEDFATYYCQQGYKWPLTFGGGTKLEITR")
321000
